# SYSTEM_NAME: T1, cynomolgus CTGF (cynomolgus, UniProt I7G525 27-349)
# T1 construct: also called cyCTGF
# T1 sequence: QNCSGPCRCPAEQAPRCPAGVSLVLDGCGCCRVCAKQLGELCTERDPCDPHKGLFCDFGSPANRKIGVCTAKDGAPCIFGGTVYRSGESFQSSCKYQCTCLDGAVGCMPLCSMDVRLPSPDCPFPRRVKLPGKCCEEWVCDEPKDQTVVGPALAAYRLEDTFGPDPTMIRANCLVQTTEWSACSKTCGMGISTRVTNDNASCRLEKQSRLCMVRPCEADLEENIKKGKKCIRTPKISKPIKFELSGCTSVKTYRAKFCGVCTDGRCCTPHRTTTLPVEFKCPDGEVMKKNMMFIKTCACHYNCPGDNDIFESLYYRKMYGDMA
# ASSAY_EXPLANATION: SPR (Biacore)
The entries below come with measured kon values attached.
Respond numerically; units are M⁻¹ s⁻¹ and should not be typed.

>>> value_reported("lipocalin mutein of SEQ ID NO: 36 (designed binder, also called hNGAL mutein) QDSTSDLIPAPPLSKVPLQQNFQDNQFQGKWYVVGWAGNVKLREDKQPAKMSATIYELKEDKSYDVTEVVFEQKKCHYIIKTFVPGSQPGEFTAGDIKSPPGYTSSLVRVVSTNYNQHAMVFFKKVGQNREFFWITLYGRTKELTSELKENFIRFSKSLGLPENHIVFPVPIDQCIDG")
141000
>>> value_reported("lipocalin mutein of SEQ ID NO: 34 (designed binder, also called hNGAL mutein) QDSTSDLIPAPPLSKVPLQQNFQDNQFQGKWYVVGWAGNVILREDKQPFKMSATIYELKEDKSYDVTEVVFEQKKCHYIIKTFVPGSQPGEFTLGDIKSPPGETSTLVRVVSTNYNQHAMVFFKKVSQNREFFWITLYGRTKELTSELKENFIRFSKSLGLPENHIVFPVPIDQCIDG")
139000

Now consider a different binder.
Item lipocalin mutein of SEQ ID NO: 24 (designed binder, also called hNGAL mutein) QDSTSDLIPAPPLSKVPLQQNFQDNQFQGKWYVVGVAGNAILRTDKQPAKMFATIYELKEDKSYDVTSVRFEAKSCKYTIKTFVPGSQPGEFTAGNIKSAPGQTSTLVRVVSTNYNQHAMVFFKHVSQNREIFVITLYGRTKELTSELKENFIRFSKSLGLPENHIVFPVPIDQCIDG : provide kon
195000
